system_under_test: Human ALDH3A1 (Homo sapiens)
Construct: made in house
Sequence (P30838 1-453): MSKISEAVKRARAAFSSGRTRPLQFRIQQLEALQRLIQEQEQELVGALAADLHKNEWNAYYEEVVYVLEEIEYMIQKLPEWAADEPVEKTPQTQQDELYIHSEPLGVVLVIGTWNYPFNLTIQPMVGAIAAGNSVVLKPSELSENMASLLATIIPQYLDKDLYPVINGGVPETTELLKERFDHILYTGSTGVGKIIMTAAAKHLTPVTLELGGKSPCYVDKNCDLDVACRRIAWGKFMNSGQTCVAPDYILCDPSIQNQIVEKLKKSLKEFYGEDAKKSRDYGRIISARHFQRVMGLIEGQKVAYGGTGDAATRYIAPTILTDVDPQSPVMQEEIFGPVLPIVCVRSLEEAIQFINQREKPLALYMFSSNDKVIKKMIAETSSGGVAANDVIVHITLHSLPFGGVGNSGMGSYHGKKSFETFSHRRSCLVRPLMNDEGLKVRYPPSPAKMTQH
protocol_text: 1,536-well enzymatic assay (NADPH fluorescence), ALDH3A1
Assay type: biochemical
run_conditions: hits of dual cell-based screen (Table 2); read-out: Biochemical IC50 ALDH3A1
readout_name: IC50 (µM)
Return type: number; implicit unit µM.

For record CC(C)N(C(=O)CCl)c1ccccc1 the listed IC50 is 50.1

====

system_under_test: Human ALDH1A3 (Homo sapiens, UniProt P47895)
Construct: purchased ThermoFisher 11636H07E50
Sequence (P47895 whole entry): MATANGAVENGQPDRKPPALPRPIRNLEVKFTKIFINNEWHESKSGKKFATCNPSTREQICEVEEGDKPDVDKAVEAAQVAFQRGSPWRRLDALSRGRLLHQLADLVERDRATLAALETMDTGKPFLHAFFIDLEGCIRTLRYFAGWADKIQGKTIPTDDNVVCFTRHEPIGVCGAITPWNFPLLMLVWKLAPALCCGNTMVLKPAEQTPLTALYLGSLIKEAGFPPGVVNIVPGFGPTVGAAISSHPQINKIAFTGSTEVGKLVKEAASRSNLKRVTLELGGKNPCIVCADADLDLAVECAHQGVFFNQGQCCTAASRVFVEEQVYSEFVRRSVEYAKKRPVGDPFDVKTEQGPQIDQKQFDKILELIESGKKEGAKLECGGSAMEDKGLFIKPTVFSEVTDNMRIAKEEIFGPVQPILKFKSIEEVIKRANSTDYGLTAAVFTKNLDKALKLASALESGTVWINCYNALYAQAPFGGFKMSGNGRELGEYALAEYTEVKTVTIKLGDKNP
protocol_text: 1,536-well enzymatic assay (NADH fluorescence), ALDH1A3
Format: biochemical
readout_name: IC50
// return the numeric value with its unit appended

Cc1cc2c(C(C)C)c(O)c(O)c(C=O)c2c(O)c1-c1c(C)cc2c(C(C)C)c(O)c(O)c(C=O)c2c1O [Gossypol] yielded IC50 of 8.55 µM

Memo: O=c1c(-c2ccc(O)cc2)coc2cc(O[C@@H]3O[C@H](CO)[C@@H](O)[C@H](O)[C@H]3O)ccc12 [Daidzin] , reported IC50: 24.1 µM

====

system_under_test: Human ALDH2 (Homo sapiens)
Construct: purchased Abcam ab87415
Sequence (P05091 18-517): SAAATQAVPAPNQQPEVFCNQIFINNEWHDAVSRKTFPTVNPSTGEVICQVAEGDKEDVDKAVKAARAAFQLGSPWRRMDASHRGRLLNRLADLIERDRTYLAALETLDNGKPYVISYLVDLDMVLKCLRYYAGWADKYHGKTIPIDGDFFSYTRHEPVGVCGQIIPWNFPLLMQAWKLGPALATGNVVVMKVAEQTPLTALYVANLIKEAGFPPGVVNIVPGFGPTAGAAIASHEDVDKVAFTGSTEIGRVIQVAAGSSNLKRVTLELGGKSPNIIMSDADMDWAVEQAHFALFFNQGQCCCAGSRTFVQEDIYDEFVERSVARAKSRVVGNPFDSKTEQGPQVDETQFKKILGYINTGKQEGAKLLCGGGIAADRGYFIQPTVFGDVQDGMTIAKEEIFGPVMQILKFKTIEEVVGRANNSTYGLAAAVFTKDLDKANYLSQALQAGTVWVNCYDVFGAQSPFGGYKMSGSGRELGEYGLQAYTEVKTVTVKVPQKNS
protocol_text: 1,536-well enzymatic assay (NADH fluorescence), ALDH2
Assay type: biochemical
readout_name: IC50 (µM)
Answer format: numeric, µM implied, no suffix.

The compound Cc1cc2c(C(C)C)c(O)c(O)c(C=O)c2c(O)c1-c1c(C)cc2c(C(C)C)c(O)c(O)c(C=O)c2c1O [Gossypol] , when measured on Human ALDH2 (Homo sapiens), yielded IC50 of 24.1

====

Please respond with reported IC50 for every item in the list.
System: HT-29 cells
protocol_text: 1,536-well high-content imaging ALDEFLUOR assay, HT-29
Format: cell-based, human
run_conditions: validation set; semi-automated protocol, 16-point dilution, 1,000 cells/well, 500 nM BAAA, 30 min; read-out: Aldefluor IC50 HT-29
From the text: To miniaturize the assay into a 1536-well format amenable to qHTS, we chose MIA PaCa-2 and HT-29 because of their high levels of ALDH1A1(Fig 1A). […] Fluorescence was subsequently imaged using the IN Cell Analyzer 2200 high-content widefield fluorescence based imager and the resulting images were quantified using the IN Cell Investigator v1.6.2 analysis software (see Experimental Procedures for analysis details). […]
Could you give me the number in µM? Just the number is fine.

Briefly, IC50 measured for CCN(CC)c1ccc(C=O)cc1 : 1.69

// field: IC50; key: CC(C)CCn1c(CN2CCN(C(=O)C3CC3)CC2)nc2c1c(=O)n(C)c(=O)n2C ; value = 4.33

Reported IC50 of CC(C)(C)c1ccc(S(=O)(=O)/C=C/C#N)cc1 : 14.3

Record COc1ccc(C(=O)CCN(C)C)cc1F , field IC50: 17.5

Memo: CCOc1ccc(NCC(=O)Nc2ccc(Cl)cc2C)cc1 , reported IC50: 14.5

The value of IC50 measured for the compound CC(C)=CCCC(C)=CC=O (mixture of isomers) turned out to be 26.6

====

Kindly supply the reported IC50 values for the records listed here.
System: MIA PaCa-2 cells
protocol_text: 1,536-well high-content imaging ALDEFLUOR assay, MIA PaCa-2
Type: cell-based, human
run_conditions: validation set; semi-automated protocol, 16-point dilution, 1,000 cells/well, 500 nM BAAA, 30 min; read-out: Aldefluor IC50 MIA PaCa-2
API: value field is a number in µM; no unit string.

IC50 reading for COc1ccc(C(=O)CCN(C)C)cc1F [Aldi-2] : 18

For reference, reported IC50 for CC(C)(C)c1ccc(S(=O)(=O)/C=C/C#N)cc1 [Bay-11-7085] stands at 20

Looking up CCN(CC)c1ccc(C=O)cc1 [DEAB, 4-N,N-diethylaminobenzaldehyde] , I see its IC50 listed as 3.44

IC50 recorded for this compound, CCOc1ccc(NCC(=O)Nc2ccc(Cl)cc2C)cc1 [CID 725345] , is 9.46

Please fill in: IC50 reported for CC(C)=CCCC(C)=CC=O (mixture of isomers) [Citral] = 27.8

====

Task for the reader: assign each of the following compounds its reported IC50.
system_under_test: Human ALDH1A2 (Homo sapiens)
Construct: purchased MyBioSource MBS1005929
Sequence (O94788 whole entry): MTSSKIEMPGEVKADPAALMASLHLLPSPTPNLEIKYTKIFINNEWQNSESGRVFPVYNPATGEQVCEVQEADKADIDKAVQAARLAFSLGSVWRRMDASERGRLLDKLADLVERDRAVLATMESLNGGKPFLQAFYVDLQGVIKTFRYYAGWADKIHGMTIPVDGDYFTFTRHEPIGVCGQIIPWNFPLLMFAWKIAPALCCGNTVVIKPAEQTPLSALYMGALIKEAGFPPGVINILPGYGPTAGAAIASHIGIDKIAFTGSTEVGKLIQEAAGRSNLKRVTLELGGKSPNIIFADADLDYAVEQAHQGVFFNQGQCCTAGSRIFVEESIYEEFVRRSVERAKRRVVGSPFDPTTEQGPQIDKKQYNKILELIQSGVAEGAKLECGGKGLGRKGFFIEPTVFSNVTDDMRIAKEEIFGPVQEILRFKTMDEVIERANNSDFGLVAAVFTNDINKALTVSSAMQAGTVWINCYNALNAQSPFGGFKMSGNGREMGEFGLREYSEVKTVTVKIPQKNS
protocol_text: 1,536-well enzymatic assay (NADH fluorescence), ALDH1A2
Type: biochemical
run_conditions: validation set; 50 nM enzyme, NAD+ and propionaldehyde; read-out: Biochemical IC50 ALDH1A2
Answer in nM, number only, no unit symbol.

// CCN(CC)C(=S)SSC(=S)N(CC)CC : IC50 value = 140

// IC50 value for CCN(CC)c1ccc(C=O)cc1 : 3400

response.value for CC(C)(C)c1ccc(S(=O)(=O)/C=C/C#N)cc1 (field: IC50) = 380

Form: compound = CCOc1ccc(NCC(=O)Nc2ccc(Cl)cc2C)cc1 ; IC50 = 340

====

system_under_test: Human ALDH2 (Homo sapiens)
Construct: purchased Abcam ab87415
protocol_text: 1,536-well enzymatic assay (NADH fluorescence), ALDH2
Type: biochemical
run_conditions: validation set; 75 nM enzyme, NAD+ and propionaldehyde; read-out: Biochemical IC50 ALDH2
Label yes (1) when IC50 < 4 µM; otherwise no (0).

In plain terms, does CC(C)(C)c1ccc(S(=O)(=O)/C=C/C#N)cc1 come in under 4 µM for IC50?
yes (1)

Consider the compound COc1cccc2cc(C(=O)CC3(O)C(=O)N(Cc4ccccc4)c4ccccc43)c(=O)oc12 (stereo not shown) . Is its IC50 strictly less than 4 µM?
no (0)

# TODO verify IC50 < 4 µM strictly for this compound: CCOc1ccc(NCC(=O)Nc2ccc(Cl)cc2C)cc1
yes (1)

Does COc1ccc(C(=O)CCN(C)C)cc1F have IC50 strictly under 4 µM?
yes (1)

Criterion: IC50 strictly below 4 µM. Is it met by Cc1nc2ccccc2n1S(=O)(=O)c1ccc(F)cc1 ?
no (0)

is_below(IC50, 4 µM) for CC(C)=CCCC(C)=CC=O (mixture of isomers) ?
no (0)

Is IC50 strictly under 4 µM for the entry O=C1Nc2ccccc2C1=O ?
no (0)

====

Test system: HT-29 cells
protocol_text: 1,536-well high-content imaging ALDEFLUOR assay, HT-29
Assay type: cell-based, human
run_conditions: Homo sapiens, HT-29, 0.5 h, validation set; semi-automated protocol, 16-point dilution, 1,000 cells/well, 500 nM BAAA, 30 min; read-out: Aldefluor IC50 HT-29
From the text: To miniaturize the assay into a 1536-well format amenable to qHTS, we chose MIA PaCa-2 and HT-29 because of their high levels of ALDH1A1(Fig 1A). […] Fluorescence was subsequently imaged using the IN Cell Analyzer 2200 high-content widefield fluorescence based imager and the resulting images were quantified using the IN Cell Investigator v1.6.2 analysis software (see Experimental Procedures for analysis details). […]
Kindly state IC50 for each of the entries shown.
Answer with a number only, understood to be in µM.

For this compound ( CCN(CC)C(=S)SSC(=S)N(CC)CC [Disulfiram] ), measured IC50 is 10.9

compound O=C1Nc2ccccc2C1=O [indoline-2,3-dione] , IC50 observed: 17.8

Lookup result for C#CCN(C)Cc1ccccc1 [Pargyline] ; measured IC50: 33.5

====

system_under_test: Human ALDH1A3 (Homo sapiens, UniProt P47895)
Construct: purchased ThermoFisher 11636H07E50
protocol_text: 1,536-well enzymatic assay (NADH fluorescence), ALDH1A3
Type: biochemical
run_conditions: hits of dual cell-based screen (Table 2); read-out: Biochemical IC50 ALDH1A3
readout_name: IC50
Please don't drop the unit; write it after the number.

# lookup: C[S+](=O)([O-])c1ccc(Cn2c3c(c4cc(F)cc(F)c42)CCCC3CC(=O)O)cc1 (centres unmarked) on Human ALDH1A3 (Homo sapiens, UniProt P47895), IC50 = 35.5 µM

Here CC(C)N(C(=O)CCl)c1ccccc1 was tested on Human ALDH1A3 (Homo sapiens, UniProt P47895), and its IC50 came to 5.62 µM
